Every entry's value here was drawn from ChEMBL document CHEMBL1147019.

# System Tested: B1 bradykinin receptor (Homo sapiens, UniProt P46663)
# Sequence (P46663 whole entry, looked up, change not shown): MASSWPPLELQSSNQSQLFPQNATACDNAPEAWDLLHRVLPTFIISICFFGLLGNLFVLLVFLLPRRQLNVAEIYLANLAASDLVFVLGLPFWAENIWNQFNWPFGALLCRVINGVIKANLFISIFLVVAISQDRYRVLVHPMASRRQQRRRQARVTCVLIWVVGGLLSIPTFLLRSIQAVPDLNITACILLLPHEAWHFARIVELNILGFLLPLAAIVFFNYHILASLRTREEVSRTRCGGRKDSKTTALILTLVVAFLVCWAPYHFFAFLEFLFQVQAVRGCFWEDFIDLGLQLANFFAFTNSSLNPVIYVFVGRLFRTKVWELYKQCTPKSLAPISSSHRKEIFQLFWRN
# Test Details: Binding affinity to human BK1 receptor Q295 mutant
pKi: −log10 of the molar value.
Reported Metric: pKi

# Substance Smiles, Quantitative Result
rows = [
    ("COC(=O)c1c(F)cccc1-c1ccc(CNc2ccc(C(=O)N3CCN(c4ccccn4)CC3)cn2)c(F)c1", 5.00),
    ("COC(=O)c1c(F)cccc1-c1ccc(CNc2ccc(C(=O)N3CCN(c4ccncc4)CC3)cn2)c(F)c1", 8.29),
    ("O=C(C[C@@H]1C(=O)Nc2ccccc2N1S(=O)(=O)c1ccc(Cl)c(Cl)c1)NCCc1ccc(C2=NCCN2)cc1", 9.05),
]
